# Tested on: ragweed (common ragweed, Ambrosia artemisiifolia)
# assay_protocol: Test A preemergence, ragweed
# Format: in vivo
# measurement_conditions: Ambrosia artemisiifolia, pre-emergence, 240 h; Preemergence, 500 g ai/ha; 0 to 100 scale (0 no effect, 100 complete control); read-out: Plant response rating, Ragweed
Let's look at some molecules and their measured pest or weed control at 500 g/ha.
attribute_measured: pest or weed control at 500 g/ha (%)

1) Cc1cc(Cl)c(NS(=O)(=O)C(F)(F)F)cc1C(=O)N1CCCCC1 [Compound 18] :: 30
2) Cc1cc(C)c(N(COC(=O)C(C)(C)C)S(=O)(=O)C(F)(F)F)cc1C1=NOC2(CCCCC2)C1 [Compound 159] :: 80
3) Cc1cc(Cl)c(NS(=O)(=O)C(F)(F)F)cc1C(=O)N1CCOCC1 [Compound 16] :: 100
4) Cc1cc(C)c(C2=NOC3(CCCCC3)C2)cc1NS(=O)(=O)C(F)(F)F [Compound 197] :: 90
5) Cc1c(NS(=O)(=O)C(F)(F)F)cc(C(=O)N2CCOCC2)c(C)c1F [Compound 190] :: 90
6) Cc1cc(C)c(C2=NOC3CCOCC23)cc1NS(=O)(=O)C(F)(F)F (stereo not drawn) [Compound 120] :: 100
